// provenance: ChEMBL document CHEMBL1145269

Molecular target: Melanin-concentrating hormone receptor 1 (Homo sapiens) (UniProt Q99705)
Test: Inhibitory concentration against human Melanin-concentrating hormone receptor 1 expressed in IMR-32 cells using [125I]MCH
pIC50: −log10 of the molar value.
Response key: T means pIC50 >= 7; F means pIC50 < 7.

mol-smiles: O=C(Nc1ccc(Oc2ccccc2)cc1)Nc1cccc2c1cnn2CCN1CCCC1
label-value: F
--
mol-smiles: O=C(Nc1ccc(Oc2ccccc2)cc1)Nc1ccc2cnn(CCN3CCCC3)c2c1
label-value: F
--
mol-smiles: NC(=O)C1CCN(CCCn2ncc3cc(NC(=O)Nc4ccc(Oc5ccccc5)cc4)ccc32)CC1
label-value: T
--
mol-smiles: O=C1N(c2ccc(Oc3ccccc3)cc2)CCN1c1ccc2c(cnn2CCN2CCCC2)c1
label-value: T

* * *

Test: Maximum brain compound (10mg/kg, p.o.) concentration in diet-induced obese mice
Type: ADME, organism-based
Parameters: dose 10 mg/kg, route oral
Conditions: mouse, po

mol-smiles: O=c1n(-c2ccc(Oc3ccccc3)cc2)ccn1-c1ccc2c(cnn2CCN2CCCC2)c1
unit-info: ng/g
Cmax: 183
//
mol-smiles: O=C(Nc1ccc(Oc2ccccc2)cc1)Nc1ccc2c(cnn2CCN2CCCC2)c1
unit-info: ng/g
Cmax: 260

* * *

Target: Melanin-concentrating hormone receptor 1 (Homo sapiens)
Assay: Inhibitory concentration against human Melanin-concentrating hormone receptor 1 expressed in IMR-32 cells using [125I]MCH
// reported log10 IC50 for each item listed
measure-name: log10 IC50 (log10 of the value in nM)

mol-smiles: O=C(Nc1ccc2cnn(CCN3CCCC3)c2c1)NC1CCN(Cc2ccccc2)CC1
log10 IC50: 3.65

mol-smiles: COC[C@@H]1CCCN1CCn1ncc2cc(NC(=O)Nc3ccc(Oc4ccccc4)cc3)ccc21
log10 IC50: 1.59

mol-smiles: O=C(Nc1ccc(Oc2ccccc2)cc1)Nc1ccc2c(cnn2CCN2CCC(O)CC2)c1
log10 IC50: 3.79

mol-smiles: O=C(Nc1ccc(OCc2ccccc2)cc1)Nc1ccc2c(cnn2CCN2CCCC2)c1
log10 IC50: 1.62

mol-smiles: COC[C@@H]1CCCN1CCCn1ncc2cc(NC(=O)Nc3ccc(Oc4ccccc4)cc3)ccc21
log10 IC50: 1.92

mol-smiles: O=C(NCc1ccc(Oc2ccccc2)cc1)Nc1ccc2c(cnn2CCN2CCCC2)c1
log10 IC50: 2.71

mol-smiles: O=C(Nc1ccc(Oc2ccccc2)cc1)Nc1ccc2c(cnn2CCNC2CCCC2)c1
log10 IC50: 0.38

* * *

Target: Melanin-concentrating hormone receptor (Homo sapiens, UniProt Q969V1+Q99705)
Experiment: Inhibition of Melanin-concentrating hormone (MCH) mediated [Ca2+] release in IMR-32 cells
Assay type: functional, cell-based
measure-name: log10(IC50) (log10 of the value in nM)

mol-smiles: O=C(Nc1ccc(OCc2ccccc2)cc1)Nc1ccc2cnn(CCN3CCCC3)c2c1
log10(IC50): 3.85
--
mol-smiles: COC[C@@H]1CCCN1CCCn1ncc2cc(NC(=O)Nc3ccc(Oc4ccccc4)cc3)ccc21
log10(IC50): 3.07
--
mol-smiles: NC(=O)C1CCN(CCCn2ncc3cc(NC(=O)Nc4ccc(Oc5ccccc5)cc4)ccc32)CC1
log10(IC50): 3.46
--
mol-smiles: CC(C)CNCCn1ncc2cc(NC(=O)Nc3ccc(Oc4ccccc4)cc3)ccc21
log10(IC50): 2.88
--
mol-smiles: NC(=O)C1CCN(CCn2ncc3cc(NC(=O)Nc4ccc(Oc5ccccc5)cc4)ccc32)CC1
log10(IC50): 2.23
--
mol-smiles: O=C(Cc1ccc(OCc2ccccc2)cc1)Nc1ccc2cnn(CCN3CCCC3)c2c1
log10(IC50): 1.04
--
mol-smiles: O=C(NCCc1ccc(Oc2ccccc2)cc1)Nc1ccc2cnn(CCN3CCCC3)c2c1
log10(IC50): 2.25
--
mol-smiles: O=C(NCc1ccc(Oc2ccccc2)cc1)Nc1ccc2cnn(CCN3CCCC3)c2c1
log10(IC50): 2.80
--
mol-smiles: O=C(CNCc1ccc(Oc2ccccc2)cc1)Nc1ccc2ccn(CCN3CCCC3)c2c1
log10(IC50): 3.26
--
mol-smiles: O=C(Nc1ccc(Oc2ccccc2)cc1)Nc1ccc2c(cnn2CCNC2CCCC2)c1
log10(IC50): 2.17
--
mol-smiles: O=C1N(c2ccc(Oc3ccccc3)cc2)CCN1c1ccc2c(cnn2CCN2CCCC2)c1
log10(IC50): 3.05
--
mol-smiles: O=C(Nc1ccc(Oc2ccccc2)cc1)Nc1ccc2c(cnn2CCCN2CCC(O)CC2)c1
log10(IC50): 2.95
